Provenance of the data: ChEMBL document CHEMBL4513216

Reported cytotoxicity at 10 µM is given for each of the following compounds.
test: Toxicity liver stage against HepG2, at 10uM; type: cell-based; set-up: test concentration 10 uM, cell line HepG2-A16-CD81EGFP; conditions: human, HepG2-A16-CD81EGFP cells; read-out: INHIBITION
Note: a bare number is incomplete; add the unit.

Use these answered entries as a reference point.
- compound: "O=C1CC2(CCN(Cc3ncc[nH]3)CC2)CN1Cc1ccc(Cl)cc1"
  cytotoxicity at 10 µM: "5.85%"
- compound: "CC(C)c1ccccc1OCCNC(=O)N1CCC2(CC1)OCCO2"
  cytotoxicity at 10 µM: "8.75%"
- compound: "CCCS(=O)(=O)NC(=O)c1ccc(CC)o1"
  cytotoxicity at 10 µM: "-8.37%"
- compound: "CC(C)n1nnnc1-c1ccc(NC(=O)CCC(F)(F)F)cc1F"
  cytotoxicity at 10 µM: "-2.5%"

Just so you know, measured cytotoxicity at 10 µM for Cc1cc(C)n(CC(C)NCc2nc(-c3cccnc3)no2)n1 (stereo unspecified) came out at 0.107%

Just so you know, measured cytotoxicity at 10 µM for Cc1cc(Cl)ccc1C(=O)C1CCCN(Cc2cnc(N(C)C)s2)C1 (stereo unspecified) came out at -13.1%

Just so you know, measured cytotoxicity at 10 µM for CC(CCN1CCCn2nc(CNS(C)(=O)=O)cc2C1)c1ccccc1 (stereo unspecified) came out at 8.85%

Just so you know, measured cytotoxicity at 10 µM for CCc1ncc(CN(C)C2CCN(c3sccc3C#N)C2=O)s1 (stereo unspecified) came out at -0.876%

Just so you know, measured cytotoxicity at 10 µM for Cc1ccc(OCC(=O)Nc2ccc(S(C)(=O)=O)cc2)cc1C came out at -2.4%

Just so you know, measured cytotoxicity at 10 µM for COc1cccc(OC)c1-c1ccnc2cc(CC(=O)N(C)C)nn12 came out at -8.86%

Just so you know, measured cytotoxicity at 10 µM for COCCOCC1CCN(C(=O)c2ccc3[nH]cnc3c2)C1 (stereo unspecified) came out at -5.73%

====

experiment: Toxicity liver stage against HepG2, at 10uM; type: cell-based; design: test concentration 10 uM, cell line HepG2-A16-CD81EGFP; details: human, HepG2-A16-CD81EGFP cells; read-out: INHIBITION
quantityName: cytotoxicity at 10 µM (%)
Give the value, in units of %, as a plain number.

Use these answered entries as a reference point.
- molecule: "O=C1CCC(=O)N1CCn1nnc(-c2cccc(Cl)c2)n1"
  cytotoxicity at 10 µM [%]: -5.05
- molecule: "CC(C)CN1CCn2nc(CNc3ncnc4[nH]ccc34)cc2C1"
  cytotoxicity at 10 µM [%]: -0.531
- molecule: "Cc1ccc(OCC(=O)NS(=O)(=O)Cc2ccccc2)cc1"
  cytotoxicity at 10 µM [%]: 2.07
- molecule: "COc1cc(F)c(C(=O)NCc2cc(C)on2)c(F)c1"
  cytotoxicity at 10 µM [%]: -0.376

Now look at this entry.
Just so you know, measured cytotoxicity at 10 µM for Cc1ccc(C(=O)N2CCC3(CC2)c2ccccc2[C@@H](N)[C@@H]3O)cc1F came out at -0.685

====

assay: Toxicity liver stage against HepG2, at 10uM; assay type: cell-based; parameters: test concentration 10 uM, cell line HepG2-A16-CD81EGFP; settings: human, HepG2-A16-CD81EGFP cells; read-out: INHIBITION
Reported cytotoxicity at 10 µM is given for each of the following molecules.
Give the value, in units of %, as a plain number.

- molecule: "COCc1noc(-c2ccc(N3CCCCC3COC)nc2)n1 (stereo unspecified)"
  uom: "%"
  cytotoxicity at 10 µM: 1.69
- molecule: "CCCc1cncnc1N1CCCC2(CCC(=O)N(C3CCCC3)C2)C1 (stereo unspecified)"
  uom: "%"
  cytotoxicity at 10 µM: 0.887
- molecule: "CC(C)NC(=O)[C@H]1C[C@@H]2[C@@H](C1)OCCN2Cc1cccnc1"
  uom: "%"
  cytotoxicity at 10 µM: 2.39
- molecule: "COCC(=O)NC[C@]12COC[C@H]1CN(Cc1ccc3c(c1)OCO3)C2"
  uom: "%"
  cytotoxicity at 10 µM: -112
- molecule: "CCN1CCC2(CC1)CN(C(=O)c1cccnc1)c1ccc(Cl)cc12"
  uom: "%"
  cytotoxicity at 10 µM: -111

Just so you know, measured cytotoxicity at 10 µM for Cc1cccc(NC(=O)C2CSCN2C(=O)c2cnccn2)c1C (stereo unspecified) came out at -0.691

Just so you know, measured cytotoxicity at 10 µM for CNC(=O)c1cc(C)ccc1NCc1cn2cc(C)ccc2n1 came out at 8.45

Just so you know, measured cytotoxicity at 10 µM for N#Cc1ccc(NCCNc2ccc(C(F)(F)F)cn2)nc1 came out at 73

====

assay: Toxicity liver stage against HepG2, at 10uM; type: cell-based; set-up: test concentration 10 uM, cell line HepG2-A16-CD81EGFP; details: human, HepG2-A16-CD81EGFP cells; read-out: INHIBITION
Reported cytotoxicity at 10 µM is given for each of the following compounds.
Give the value, in units of %, as a plain number.

Use these answered entries as a reference point.
- compound: "Cc1ccc(CN(C(=O)NCC2CCCO2)C2CC2)o1 (configuration not stated)"
  uom: "%"
  cytotoxicity at 10 µM: -151
- compound: "Cc1nc(CN2CCCN(CCOc3cccc(C#N)c3)CC2)no1"
  uom: "%"
  cytotoxicity at 10 µM: -5.85
- compound: "O=C(c1cccnc1)N1CCC2(CC1)CN(c1ccccn1)CCO2"
  uom: "%"
  cytotoxicity at 10 µM: -69.5

Just so you know, measured cytotoxicity at 10 µM for Cc1cnn(C2CCCN(C(=O)c3ccc(-n4cnnn4)cc3)C2)c1 (configuration not stated) came out at -4.57

Just so you know, measured cytotoxicity at 10 µM for O=C(NCc1nnc2n1CCC2)c1ccc(Br)s1 came out at 2.74

====

test: Toxicity liver stage against HepG2, at 10uM; assay type: cell-based; set-up: test concentration 10 uM, cell line HepG2-A16-CD81EGFP; conditions: human, HepG2-A16-CD81EGFP cells; read-out: INHIBITION
Reported cytotoxicity at 10 µM is given for each of the following compounds.
Give the value, in units of %, as a plain number.

Use these answered entries as a reference point.
- compound: "Cc1nc(C)n(CC2CCCCN2Cc2nc3ccccc3o2)n1 (stereo unspecified)"
  cytotoxicity at 10 µM, %: -6.8
- compound: "Cc1noc(CN2CCN(CCS(C)(=O)=O)CC2)n1"
  cytotoxicity at 10 µM, %: -10.1

Just so you know, measured cytotoxicity at 10 µM for Cc1ncsc1CCN(C)C(=O)C(c1cccnc1)N1CCOCC1 (stereo unspecified) came out at -6.02

Just so you know, measured cytotoxicity at 10 µM for O=C(NCC1CC1)[C@H]1C[C@@H]2CCN(CCc3ccccc3)C[C@H]2O1 came out at -75.5

Just so you know, measured cytotoxicity at 10 µM for CC(=O)N1CCC2(CCCN(Cc3ccc(Cl)c(C(F)(F)F)c3)C2)C1 (stereo unspecified) came out at 3.22

====

assay: Toxicity liver stage against HepG2, at 10uM; format: cell-based; set-up: test concentration 10 uM, cell line HepG2-A16-CD81EGFP; details: human, HepG2-A16-CD81EGFP cells; read-out: INHIBITION
quantityName: cytotoxicity at 10 µM (%)
Give the value, in units of %, as a plain number.

Just so you know, measured cytotoxicity at 10 µM for COc1ccccc1OC1CCN(Cc2cccnc2)CC1 came out at -1.7

Just so you know, measured cytotoxicity at 10 µM for CNC(=O)c1sc(C(NC(=O)c2ccccc2)C2CC2)nc1C (configuration not stated) came out at 2.31

Just so you know, measured cytotoxicity at 10 µM for Cn1cnnc1-c1cncc(NCc2cccc3c2OCO3)c1 came out at 9.15

Just so you know, measured cytotoxicity at 10 µM for CN(CCC#N)C(=O)CCOc1cccc(F)c1 came out at -2.46

Just so you know, measured cytotoxicity at 10 µM for CN(Cc1nc(Cc2cccc(C(F)(F)F)c2)no1)CC1CCCCO1 (configuration not stated) came out at 3.64

Just so you know, measured cytotoxicity at 10 µM for Cc1c(C(=O)NC(C)C)nnn1-c1cccc(C(F)(F)F)c1 came out at -1.54

Just so you know, measured cytotoxicity at 10 µM for O=C1CC(C(=O)NCCN2CCOC2=O)c2cc(F)ccc2N1 (configuration not stated) came out at -0.511

Just so you know, measured cytotoxicity at 10 µM for Cn1cnnc1C1CCN(C(=O)CCOc2ccc(Cl)cc2)CC1 came out at -8.94

====

assay: Toxicity liver stage against HepG2, at 10uM; type: cell-based; parameters: test concentration 10 uM, cell line HepG2-A16-CD81EGFP; details: human, HepG2-A16-CD81EGFP cells; read-out: INHIBITION
quantityName: cytotoxicity at 10 µM (%)
Give the value, in units of %, as a plain number.

Use these answered entries as a reference point.
- molecule: "Cc1cnn(CCNCc2c(C)nn(C)c2Cl)c1"
  quantityName: "cytotoxicity at 10 µM"
  recordedMeasurement: -15.3
- molecule: "Cn1cnnc1CNC(=O)Nc1cc(C(F)(F)F)c[nH]c1=O"
  quantityName: "cytotoxicity at 10 µM"
  recordedMeasurement: -3.2
- molecule: "COCC(NC(=O)c1cccnc1)c1cccc(C(F)(F)F)c1 (configuration not stated)"
  quantityName: "cytotoxicity at 10 µM"
  recordedMeasurement: -12.9
- molecule: "CN(C)CC1CN(CCOc2cccc(C#N)c2)CCO1 (configuration not stated)"
  quantityName: "cytotoxicity at 10 µM"
  recordedMeasurement: -9.63
- molecule: "CC(C)(C)c1noc(CN2CCN(C(=O)c3cccs3)CC2)n1"
  quantityName: "cytotoxicity at 10 µM"
  recordedMeasurement: -5.82

Just so you know, measured cytotoxicity at 10 µM for COc1cc(NC(=O)c2nc3ccccc3n(C)c2=O)cc(OC)c1 came out at 7.67

Just so you know, measured cytotoxicity at 10 µM for O=C(c1cccnc1-n1cncn1)N1CCN(CC(F)(F)F)CC1 came out at 4.39

Just so you know, measured cytotoxicity at 10 µM for C=C(C)CN(Cc1cccc(O)c1)C1CCC(O)CC1 (configuration not stated) came out at 17.3
